Just for reference, paper PMC6271415 is where these values come from.

# Assayed Target: soybean 15-LOX (Glycine max, UniProt P08170)
# Construct: purchased
# Sequence (P08170 whole entry): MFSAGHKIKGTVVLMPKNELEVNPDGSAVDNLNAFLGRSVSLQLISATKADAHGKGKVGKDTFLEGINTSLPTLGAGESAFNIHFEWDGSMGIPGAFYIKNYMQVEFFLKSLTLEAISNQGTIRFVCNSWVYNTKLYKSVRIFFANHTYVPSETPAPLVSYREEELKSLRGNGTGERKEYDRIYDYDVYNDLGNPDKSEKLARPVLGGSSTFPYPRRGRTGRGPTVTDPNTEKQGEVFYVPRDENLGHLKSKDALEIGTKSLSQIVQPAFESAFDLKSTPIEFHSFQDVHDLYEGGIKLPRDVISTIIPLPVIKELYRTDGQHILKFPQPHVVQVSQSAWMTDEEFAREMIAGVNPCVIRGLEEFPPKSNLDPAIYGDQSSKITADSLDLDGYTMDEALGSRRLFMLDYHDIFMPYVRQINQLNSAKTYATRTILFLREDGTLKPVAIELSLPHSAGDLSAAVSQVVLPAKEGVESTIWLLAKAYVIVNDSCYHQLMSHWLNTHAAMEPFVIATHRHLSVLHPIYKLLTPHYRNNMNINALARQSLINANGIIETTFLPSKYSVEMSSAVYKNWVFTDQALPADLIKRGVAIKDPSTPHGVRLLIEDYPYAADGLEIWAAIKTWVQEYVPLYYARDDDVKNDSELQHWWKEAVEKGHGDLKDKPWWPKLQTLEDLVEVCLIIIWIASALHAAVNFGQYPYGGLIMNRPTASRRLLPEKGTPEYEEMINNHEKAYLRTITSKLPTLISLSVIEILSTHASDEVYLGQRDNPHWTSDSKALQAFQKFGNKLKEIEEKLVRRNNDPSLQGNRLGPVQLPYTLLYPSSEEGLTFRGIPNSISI
# Experiment Notes: In vitro soybean 15-lipoxygenase inhibition assay (spectrophotometric, linoleic acid substrate)
# Type: biochemical
Assay Endpoint: IC50

Task: Query (compound): CCCCC(=O)c1c(O)cc(O)cc1O [2e, 1-(2,4,6-Trihydroxyphenyl)pentan-1-one] ; field requested: IC50
Result: > 100 µM

---

# Assayed Target: soybean 15-LOX (Glycine max, UniProt P08170)
# Construct: purchased
# Experiment Notes: In vitro soybean 15-lipoxygenase inhibition assay (spectrophotometric, linoleic acid substrate)
# Assay type: biochemical
# Experimental Parameters: rounded values printed in Figure 1; read-out: 15-LOX IC50 (Figure 1)
Assay Endpoint: pIC50
Numbers only, as −log10 of the molar value.

Molecule: CC(=O)c1c(O)cc(O)c(C/C=C(\C)CCC=C(C)C)c1O [tHGA, 2,4,6-trihydroxy-3-geranylacetophenone]
Assayed Target: soybean 15-LOX (Glycine max, UniProt P08170)
pIC50: 4.64

Alright, here's another molecule for you.
Task: Hello, I am looking for reported pIC50 with soybean 15-LOX (Glycine max, UniProt P08170) for CC(C)=CCC/C(C)=C/Cc1c(O)cc(O)c(C(=O)C(C)C)c1O . Could you help?
Result: 4.57
